Below, each entry is listed alongside its reported viability, T/C.
- Tested on: PANC-1 complex spheroid growth, percent test/control
- EXPERIMENTAL DETAILS: Anticancer human tumor PANC-1 cell line growth inhibition [Asc];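 also: spheroids exposed to agents for 7 days; percent viability relative to DMSO vehicle wells taken as 100%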
- CONDITION DESCRIPTION: second compound 0.0316 µM; first compound 0.316 µM; hits give low values
- Excerpt: Multicellular complex tumor spheroid response to apoptosis pathway targeting inhibitors Alrizomadlin, Pelcitoclax, and Dasminapant in combination with a variety of drugs and investigational agents in selected tumor cell lines […] Compounds. […] If the clinical Cmax for an agent had not been determined, the highest concentration tested was 10 microM. […]

COMPOUND: C=C(F)C(=O)N1CCN(c2nc(OCC3CCCN3C)nc3c2CCN(c2cccc4cccc(Cl)c24)C3)CC1CC#N (stereo not drawn) + Cc1c(S(C)(=O)=O)c(-c2cc(F)cc(N3CCN(c4ccc(NS(=O)(=O)c5ccc(NC(CCN6CCC(C(=O)OCCCP(=O)(O)O)CC6)CSc6ccccc6)c(S(=O)(=O)C(F)(F)F)c5)cc4)CC3)c2)c(-c2ccc(Cl)cc2)n1C(C)C
SYSTEM UNDER TEST: PANC-1 complex spheroid growth, percent test/control
viability, T/C, %: 106

COMPOUND: C=CC(=O)N1CCN(c2nc(=O)n(-c3c(C)ccnc3C(C)C)c3nc(-c4c(O)cccc4F)c(F)cc23)C(C)C1 (stereo not drawn) + Cc1c(S(C)(=O)=O)c(-c2cc(F)cc(N3CCN(c4ccc(NS(=O)(=O)c5ccc(NC(CCN6CCC(C(=O)OCCCP(=O)(O)O)CC6)CSc6ccccc6)c(S(=O)(=O)C(F)(F)F)c5)cc4)CC3)c2)c(-c2ccc(Cl)cc2)n1C(C)C
SYSTEM UNDER TEST: PANC-1 complex spheroid growth, percent test/control
viability, T/C, %: 93.7

COMPOUND: CCN1CCN(Cc2ccc(Nc3ncc(F)c(-c4cc(F)c5nc(C)n(C(C)C)c5c4)n3)nc2)CC1 + Cc1c(S(C)(=O)=O)c(-c2cc(F)cc(N3CCN(c4ccc(NS(=O)(=O)c5ccc(NC(CCN6CCC(C(=O)OCCCP(=O)(O)O)CC6)CSc6ccccc6)c(S(=O)(=O)C(F)(F)F)c5)cc4)CC3)c2)c(-c2ccc(Cl)cc2)n1C(C)C
SYSTEM UNDER TEST: PANC-1 complex spheroid growth, percent test/control
viability, T/C, %: 124
